- ASSAY SYSTEM: T1, KRAS G12V peptide on HLA-A*11:01 (human)
- T1 peptide: VVGAVGVGK
- ASSAY COMMENT: multimer staining
VALUE TYPE: binding result

nwTCR-2424 (TCR, V domains shown) Valpha: QKEVEQNSGPLSVPEGAIASLNCTYSDRGSQSFFWYRQYSGKSPELIMFIYSNGDKEDGRFTAQLNKASQYVSLLIRDSQPSDSATYLCARKKTSYDKVIFGPGTSLSVIP Vbeta: DSGVTQTPKHLITATGQRVTLRCSPRSGDLSVYWYQQSLDQGLQFLIQYYNGEERAKGNILERFSAQQFPDLHSELNLSSLELGDSALYFCASSLGDSEQFFGPGTRLTVL ... recognises
nwTCR-2595 (TCR, V domains shown) Valpha: ILNVEQSPQSLHVQEGDSTNFTCSFPSSNFYALHWYRWETAKSPEALFVMTLNGDEKKKGRISATLNTKEGYSYLYIKGSQPEDSATYLCAFNNQGGKLIFGQGTELSVKP Vbeta: EAQVTQNPRYLITVTGKKLTVTCSQNMNHEYMSWYRQDPGLGLRQIYYSMNVEVTDKGDVPEGYKVSRKEKRNFPLILESPSPNQTSLYFCASSSGTGGGAEAFFGQGTRLTVV ... recognises
nwTCR-2629 (TCR, V domains shown) Valpha: AQSVTQLDSHVSVSEGTPVLLRCNYSSSYSPSLFWYVQHPNKGLQLLLKYTSAATLVKGINGFEAEFKKSETSFHLTKPSAHMSDAAEYFCVVSVWTDKLIFGTGTRLQVFP Vbeta: GAVVSQHPSWVICKSGTSVKIECRSLDFQATTMFWYRQFPKQSLMLMATSNEGSKATYEQGVEKDKFLINHASLTLSTLTVTSAHPEDSSFYICSANRDFGIYEQYFGPGTRLTVT ... recognises
nwTCR-2561 (TCR, V domains shown) Valpha: GNSVTQMEGPVTLSEEAFLTINCTYTATGYPSLFWYVQYPGEGLQLLLKATKADDKGSNKGFEATYRKETTSFHLEKGSVQVSDSAVYFCALPAGGGADGLTFGKGTHLIIQP Vbeta: GAGVSQSPSNKVTEKGKDVELRCDPISGHTALYWYRQSLGQGLEFLIYFQGNSAPDKSGLPSDRFSAERTGGSVSTLTIQRTQQEDSAVYLCASSFGTSGDQYEQYFGPGTRLTVT ... recognises
nwTCR-2310 (TCR, V domains shown) Valpha: SQQGEEDPQALSIQEGENATMNCSYKTSINNLQWYRQNSGRGLVHLILIRSNEREKHSGRLRVTLDTSKKSSSLLITASRAADTASYFCATDGGGGADGLTFGKGTHLIIQP Vbeta: DSGVTQTPKHLITATGQRVTLRCSPRSGDLSVYWYQQSLDQGLQFLIQYYNGEERAKGNILERFSAQQFPDLHSELNLSSLELGDSALYFCASSLHRDSDTEAFFGQGTRLTVV ... recognises

query: Look up and report measured binding result for this entry: nwTCR-2392 (TCR, V domains shown) Valpha: DQQVKQNSPSLSVQEGRISILNCDYTNSMFDYFLWYKKYPAEGPTFLISISSIKDKNEDGRFTVFLNKSAKHLSLHIVPSQPGDSAVYFCAASYAGSARQLTFGSGTQLTVLP Vbeta: GAGVSQSPSNKVTEKGKDVELRCDPISGHTALYWYRQRLGQGLEFLIYFQGNSAPDKSGLPSDRFSAERTGESVSTLTIQRTQQEDSAVYLCASSPGGNYGYTFGSGTRLTVV
result: recognises

query: Look up and report measured binding result for this entry: nwTCR-2390 (TCR, V domains shown) Valpha: SQQGEEDPQALSIQEGENATMNCSYKTSINNLQWYRQNSGRGLVHLILIRSNEREKHSGRLRVTLDTSKKSSSLLITASRAADTASYFCATDSGGGADGLTFGKGTHLIIQP Vbeta: DSGVTQTPKHLITATGQRVTLRCSPRSGDLSVYWYQQSLDQGLQFLIQYYNGEERAKGNILERFSAQQFPDLHSELNLSSLELGDSALYFCASSHGRDSTDTQYFGPGTRLTVL
result: recognises
